# Test Protocol: qHTS of pediatric cancer cell lines to identify multiple opportunities for drug repurposing: Primary screen for MG 63 (6-TG R) cells (AID 1347105); also: nearly all actives have a fitted effect of over 50% in size
# Condition Info: MG 63 (6-TG R) viability, CellTiter-Glo, 48 h; series mostly up to 46 µM
Inconclusive results are not listed. The source made the active and inactive calls. Calls follow the shape of the dose curve; as a rule, active = well fitted cell-killing curve with a large enough effect; inconclusive = small, poorly fitted or top-dose-only effect; inactive = no such curve, though single readings can be large or run the other way.
Possible outcomes: active, inactive

INSERT INTO results (compound, class_label) VALUES
  ('CCCN1CCC[C@@H]2Cc3[nH]ncc3C[C@H]21', 'inactive'),
  ('COC[C@H]1OC(=O)c2coc3c2[C@@]1(C)C1=C(C3=O)C2CCC(=O)[C@@]2(C)C[C@H]1OC(C)=O (stereo partly specified)', 'active'),
  ('Cc1cccc(C)c1NC1=NCCCS1', 'inactive'),
  ('Cc1ccc(-c2nc3ccc(C)cn3c2CC(=O)N(C)C)cc1', 'inactive'),
  ('C[C@]12CC[C@H]3[C@@H](CCC4=CC(=O)CC[C@@H]43)[C@@H]1CC[C@@H]2OC(=O)CCc1ccccc1', 'inactive'),
  ('Cc1cc(SCc2sc(-c3ccc(C(F)(F)F)c(F)c3)nc2C)ccc1OCC(=O)O', 'inactive'),
  ('Fc1ccc(C(OCCN2CCN(CCCc3ccccc3)CC2)c2ccc(F)cc2)cc1', 'active'),
  ('Oc1cccc2cccnc12', 'inactive'),
  ('O=c1[nH]c2ccccc2n1CCCN1CCC(n2c(=O)[nH]c3cc(Cl)ccc32)CC1', 'inactive'),
  ('O=[N+]([O-])c1cc([As](=O)(O)O)ccc1O', 'inactive'),
  ('COc1ccc(Cc2nccc3cc(OC)c(OC)cc23)cc1OC', 'inactive');
